Molecular target: human PAD4 (Homo sapiens (Human))
Sequence (Q9UM07 2-663): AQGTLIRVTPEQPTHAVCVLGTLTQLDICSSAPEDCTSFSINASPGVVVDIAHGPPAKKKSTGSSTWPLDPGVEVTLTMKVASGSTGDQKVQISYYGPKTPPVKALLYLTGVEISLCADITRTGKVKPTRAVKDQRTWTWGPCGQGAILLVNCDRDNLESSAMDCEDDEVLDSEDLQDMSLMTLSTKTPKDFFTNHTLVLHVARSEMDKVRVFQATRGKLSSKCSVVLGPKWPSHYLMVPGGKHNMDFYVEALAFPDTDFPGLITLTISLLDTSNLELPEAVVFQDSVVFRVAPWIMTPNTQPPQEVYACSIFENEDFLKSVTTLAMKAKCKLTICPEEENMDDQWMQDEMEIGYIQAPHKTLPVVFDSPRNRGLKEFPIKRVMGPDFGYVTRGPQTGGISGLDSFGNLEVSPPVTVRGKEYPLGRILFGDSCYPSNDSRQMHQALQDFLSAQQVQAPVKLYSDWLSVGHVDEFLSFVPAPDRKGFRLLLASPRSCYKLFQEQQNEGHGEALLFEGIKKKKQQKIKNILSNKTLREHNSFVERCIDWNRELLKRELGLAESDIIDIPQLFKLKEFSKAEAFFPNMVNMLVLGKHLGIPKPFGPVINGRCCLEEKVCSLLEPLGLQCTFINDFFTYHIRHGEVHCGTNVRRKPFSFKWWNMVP
Assay: In Vitro PAD4 BAEE Biochemical Assay
Conditions: human PAD4, BAEE substrate; 5 nM PAD4, 2 mM calcium chloride, 3 mM BAEE; geometric mean of multiple experiments
pIC50: −log10 of the molar value.
Ranges used to classify pIC50: category 1 = under 6, category 2 = from 6 up to 7, category 3 = 7 and over

{"columns": ["Molecular string", "Target of assay", "Label"],
 "data": [
  ["COc1cc(C(=O)N2C[C@H](N)CC[C@@H]2C)cc2nc(-c3cc4ccc(-c5cccnc5-c5cncnc5)nc4n3CC3CC3)n(C)c12", "human PAD4 (Homo sapiens (Human))", "category 2"]
]}

Band assignment needed for `COc1cc(C(=O)N2[C@H]3CC[C@@H]2[C@H](N)C3)cc2nc(-c3cc4ccc([C@@H](C)NC(=O)[C@@H]5CC5(F)F)nc4n3CC3CC3)n(C)c12` please.
category 3

Hello team, could you let me know which band the following compound falls into: `COc1cc(C(=O)N2C[C@H](N)[C@@H]3CC[C@H]2C3)cc2nc(-c3cc4ccc([C@@H](C)NC(=O)C56CC(F)(C5)C6)nc4n3CC3CC3)n(C)c12`
category 3

The reported numbers originate from patent US11878965B2.
